B1: 2K2A (parent)
chain: ELREAFRLYDKEGNGYISTDVMREILAELDETLSSEDLDAMIDEIDADGSGTVDFEEFMGVMT

Variants of: B1
Experiment: folding stability dG (cDNA display proteolysis); higher = more stable
Details: PBS, room temperature
readout-name: folding stability dG (kcal/mol)
Reply numerically in kcal/mol, unit not repeated.

Look over these answered cases.
In [3]: df
Out[3]:
   alteration          readout_name  unit_spec  data_value
0        I45R  folding stability dG   kcal/mol       0.158
1        G13R  folding stability dG   kcal/mol        1.01
2        G49E  folding stability dG   kcal/mol        1.26
3         F6S  folding stability dG   kcal/mol       0.268
4         L8G  folding stability dG   kcal/mol        1.73

[Q] Entry `T19V` : reported folding stability dG = ?
[A] 2.04

[Q] Reported folding stability dG, variant `M62S` : ____
[A] 0.277

[Q] // returns reported folding stability dG for input `A40D`
[A] 1.4
